- MEASURED TARGET: T1, human Aβ pE3-18 peptide, pEFRHDSGYEVHHQKLV (human)
- T1 construct: The range 3-18 counts on the Aβ peptide; also called pE3-Aβ18; pE3-Aβ peptide
- T1 peptide: [pGlu]FRHDSGYEVHHQKLV
- ASSAY PROCEDURE: SPR, 1:1 Langmuir fit
- Procedure: First a polyclonal α-human antibody was coupled to an SPR-Chip subsequent loaded with the humanized antibody until the Response Unit was more than 1000. Kinetic measurement was performed at different concentrations (of 5 to 1000 nM) of AβpE3-18-peptide. The graphs of the measured series are shown as an overlay plot with the sensorgrams, corrected by the sensogram measuring the running buffer, aligned at the time of injection and the baseline adjusted to zero before injection. […]
Non-standard residues stand in square brackets, D forms with d. No end group written: not given here. pGlu = O=C1CC[C@@H](C(=O)O)N1

BINDER	UNIT OF MEASURE	kon
humanized antibody clone #6 sequence variant VH: SEQ ID NO: 70, VL: SEQ ID NO: 14 (antibody, human IgG1, V domains shown) VH: QVQLVQSGAEVKKSGASVKVSCKASGYSFTGHTMNWVRQAPGQGLEWMGLINPSNEVTRYNQKFQGRVTITRDTSTTTVHMELTSLTSEDTATYYCTREAKREWDETYWGQGTLVTVSS VL: DVVMTQSPLSLPVTLGQPASISCKSSQSLLYSDGKTYLNWFQQRPGQSPRRLTYLVSKLDSGVPDRFSGSGSGTDFTLKISRVEAEDVGVYYCVQGTHFPFTFGGGTKVEIK	M⁻¹ s⁻¹	423000
humanized antibody clone #6 sequence variant VH: SEQ ID NO: 27, VL: SEQ ID NO: 15 (antibody, human IgG1, V domains shown) VH: QVQLVQSGAEVKKSGASVKVSCKASGYSFTGHTMNWVRQAPGQGLEWMGLINPSNGVTRYNQKFQGRVTITRDTSTTTVHMELTSLTSEDTATYYCTREAKREWDETYWGQGTLVTVSS VL: DVVMTQSPLSLPVTLGQPASISCKSSQSLLHSDGKTYLNWFQQRPGQSPRRLTYLVSKLDSGVPDRFSGSGSGTDFTLKISRVEAEDVGVYYCVQGTHFPFTFGGGTKVEIK	M⁻¹ s⁻¹	267000
humanized antibody clone #6 sequence variant VH: SEQ ID NO: 24, VL: SEQ ID NO: 14 (antibody, human IgG1, V domains shown) VH: QVQLVQSGAEVKKSGASVKVSCKASGYSFTGHTMNWVRQAPGQGLEWMGLINPSNGVTRYNQKFQGRVTITRDTSTTTVHMELTSLTSEDTAVYYCTREAKREWDETYWGQGTLVTVSS VL: DVVMTQSPLSLPVTLGQPASISCKSSQSLLYSDGKTYLNWFQQRPGQSPRRLTYLVSKLDSGVPDRFSGSGSGTDFTLKISRVEAEDVGVYYCVQGTHFPFTFGGGTKVEIK	M⁻¹ s⁻¹	616000
humanized antibody clone #6 sequence variant VH: SEQ ID NO: 27, VL: SEQ ID NO: 14 (antibody, human IgG1, V domains shown) VH: QVQLVQSGAEVKKSGASVKVSCKASGYSFTGHTMNWVRQAPGQGLEWMGLINPSNGVTRYNQKFQGRVTITRDTSTTTVHMELTSLTSEDTATYYCTREAKREWDETYWGQGTLVTVSS VL: DVVMTQSPLSLPVTLGQPASISCKSSQSLLYSDGKTYLNWFQQRPGQSPRRLTYLVSKLDSGVPDRFSGSGSGTDFTLKISRVEAEDVGVYYCVQGTHFPFTFGGGTKVEIK	M⁻¹ s⁻¹	635000
humanized antibody clone #6 sequence variant VH: SEQ ID NO: 27, VL: SEQ ID NO: 13 (antibody, human IgG1, V domains shown) VH: QVQLVQSGAEVKKSGASVKVSCKASGYSFTGHTMNWVRQAPGQGLEWMGLINPSNGVTRYNQKFQGRVTITRDTSTTTVHMELTSLTSEDTATYYCTREAKREWDETYWGQGTLVTVSS VL: DVVMTQSPLSLPVTLGQPASISCKSSQSLLYSDGKTYLNWFQQRPGQSPRRLAYLVSKLDSGVPDRFSGSGSGTDFTLKISRVEAEDVGVYYCVQGTHFPFTFGGGTKVEIK	M⁻¹ s⁻¹	562000

These measurements were taken from patent US20180140689A1.
